# reported IC50; entries follow
testedSystem: human renal renin (Homo sapiens)
Construct: human renal renin, free from acid proteolytic activity; from tissue
Sequence (P00797 67-406): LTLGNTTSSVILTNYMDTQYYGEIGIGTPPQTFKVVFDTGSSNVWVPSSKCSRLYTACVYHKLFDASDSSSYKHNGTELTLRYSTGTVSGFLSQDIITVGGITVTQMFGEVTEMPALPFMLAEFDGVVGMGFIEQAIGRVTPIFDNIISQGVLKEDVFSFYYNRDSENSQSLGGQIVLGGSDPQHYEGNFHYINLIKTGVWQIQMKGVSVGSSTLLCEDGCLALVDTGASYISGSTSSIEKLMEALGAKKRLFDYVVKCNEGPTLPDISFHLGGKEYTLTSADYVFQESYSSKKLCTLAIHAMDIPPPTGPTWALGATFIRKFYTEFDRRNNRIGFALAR
experimentDescription: Inhibition of human renal renin in vitro; angiotensin I formed measured by radioimmunoassay
Format: biochemical
Where a name gives a salt, the structure may show the parent alone.
Report the figure in nM without appending any unit label.

Some compounds with known IC50 results, for comparison:
compound	measurementUnits	result
CC(C)C[C@H](O)[C@H](O)[C@H](CC1CCCCC1)NC(=O)[C@H](Cc1c[nH]cn1)NC(=O)[C@H](Cc1ccccc1)NC(=O)[C@@H]1CCCN1 [Example 77, Acetic Acid Salt]	nM	0.98
CC(C)C[C@H](O)[C@H](O)[C@H](CC1CCCCC1)NC(=O)[C@H](Cc1c[nH]cn1)NC(=O)[C@H](Cc1ccccc1)OC(=O)N1CCOCC1	nM	0.5

Next:
Reported IC50 for human renal renin (Homo sapiens), given CCOC(=O)N[C@@H](Cc1ccccc1)C(=O)N[C@@H](CC(C)C)C(=O)N[C@@H](CC1CCCCC1)[C@@H](O)[C@@H](O)CC ?
1
